# Test system: P. falciparum stage V gametocytes
# Parameters: BacTiter-Glo ATP luminescence viability of purified stage V gametocytes in 384-well plates, per cent inhibition versus DMSO
# test.conditions: 48 h, 5 µM; inhibitor
The campaign covered roughly 13,000 compounds. About 3,200 (25%) showed an effect of 50% or more. Some of the results follow.
Recorded % Inhibition, one value per entry.
Enter your answer as a number in %; do not include the unit.

{"columns": ["compound", "unit.annotation", "obs.value"],
 "data": [
  ["O=C(O)c1ccc2c(c1)N(C(=O)CNCc1ccc(F)cc1)CC(=O)N2CCCc1ccccc1", "%", -9.998],
  ["CC(=O)Oc1c(C(=O)C2CCC(C(C)(C)C)CC2)c(OC(C)=O)c2ccccc2c1OC(C)=O (stereo not drawn)", "%", 0.9625],
  ["CCn1cc2c3c(cc(C(=O)N[C@@H](Cc4ccccc4)[C@H](O)CNCc4cccc(OC)c4)cc31)N(C)S(=O)(=O)CC2", "%", 29.74],
  ["CCCCCCCCc1c(C)[nH]c(C)c(I)c1=O", "%", 48.86]
]}

Q: I have this compound here, `O=C(Nc1cccc(-c2csc(-c3nc4ccccc4[nH]3)c2)c1)c1ccoc1` , and I need its recorded % Inhibition.
Result: 1.607

Q: Same question, CCn1c(SC)nnc1C1CCCN(CC(=O)Nc2nc3ccc(OC)cc3s2)C1 (stereo not drawn) this time
Result: 2.495

Q: Same question, `O=C(CCCCCNC(=O)c1ccc(O)c(-c2ccc(Cl)c(Cl)c2)c1)NC1CCCCCC1` this time
Result: -20.8

Q: Same question, `C=CCOc1ccc(Cc2cnc(N)nc2N)cc1CCC` this time
Result: -18.38

Q: Same question, `CN(C)CCOc1ccc(-n2c(-c3nonc3N)nc3cncc(-c4ccc(F)cc4)c32)cc1` this time
Result: -7.095

Q: Same question, `O=C(NC1CC1)c1ccc(N2CCC(Oc3ccc(F)cc3)CC2)nc1` this time
Result: 8.582

Q: Same question, `NC(=O)c1c(Cl)nc2ccccc2c1Cl` this time
Result: -0.4742

Q: Same question, `Cc1ccc(F)cc1-c1cc(N2CCCN(C(=O)c3ccc(Br)o3)CC2)ncn1` this time
Result: 67.99

====

# System: P. falciparum stage V gametocytes
# Set-up: BacTiter-Glo ATP luminescence viability of purified stage V gametocytes in 384-well plates, per cent inhibition versus DMSO
# test.conditions: 48 h, 5 µM; inhibitor
In all, about 13,000 compounds went through this assay and about 3,200 (25%) showed an effect of 50% or more. Some of the results follow.
endpoint.name: % Inhibition (%)
Enter your answer as a number in %; do not include the unit.

Sample answers from the record:
{"columns": ["entry.smiles", "% Inhibition [%]"],
 "data": [
  ["Cc1cc(NCCc2ccccc2)nc(/N=C(\\N)Nc2cccc([N+](=O)[O-])c2)n1", 3.581],
  ["Cc1cc(N2CCCC2)nc(Nc2ccc(NC(=O)c3ccc(Br)o3)cc2)n1", -0.4475],
  ["Cc1cc(N[C@@H](Cc2ccccc2)C(=O)NCCOc2ccccc2)nc(NCCOc2ccccc2)n1", 76.97]
]}

Q: Query for P. falciparum stage V gametocytes: what % Inhibition does the record show for `COc1ccc2c(NN=Cc3cccc(F)c3)cc(C)nc2c1` ?
Result: 106.9

Q: Same question, `Cc1cc(NN=Cc2ccc(F)cc2)c2cccc(C)c2n1` this time
Result: 83.37

Q: Same question, `CS(=O)(=O)Cc1ccc(Nc2nccc(NC3CCN(c4nccc(C(F)(F)F)n4)CC3)n2)cc1` this time
Result: 7.117

Q: Same question, `CCCNCc1ccc(-c2ccc(CN(CCOC)C(=O)c3ccco3)cc2)nc1` this time
Result: 89.84
